These entries and their values trace back to PubChem BioAssay (Tox21).

test.details: qHTS RealTime-Glo MT Cell Viability Assay in HepG2 cells - 24 hour (AID 1224867); also: nearly all actives have a fitted effect of over 50% in size
assay.conditions: RealTime-Glo luminescence; series mostly up to 76.8 µM
Records with an inconclusive call do not appear. Active and inactive are the calls of the source. Calls follow the shape of the dose curve; as a rule, active = well fitted cell-killing curve with a large enough effect in the repeat runs; inconclusive = weak or mixed curves; inactive = flat fitted curve, though single readings scatter.
# valid calls are active, inactive; nothing else

Would you please look over these solved cases?
compound | label.value
CC1CCC(C(C)(C)O)CC1 (configuration not stated) | inactive
CN1CCN(c2ccccc2/C=C2\SCCN(c3ccc(Cl)c(Cl)c3)C2=O)CC1 | active
Cn1ccnc1 | inactive

Challenge: Look up the recorded call for CCN(CC)c1ccc(C=O)c(O)c1 in this test.
Response given: inactive

Challenge: Look up the recorded call for CC1=C(/C=C/C(C)=C/C=C/C(C)=C\C(=O)O)C(C)(C)CCC1 in this test.
Response given: inactive

Challenge: Look up the recorded call for Cc1c[nH]c(=O)[nH]c1=O in this test.
Response given: inactive

Challenge: Look up the recorded call for COc1cccc(-c2ccc(/C=C\CN3CCCCCC3)cc2Cl)c1 in this test.
Response given: active
